Here the recorded Percent Effect is given for each entry.
Test system: Trypanosoma brucei
method.notes: Trypanosoma brucei 72 hour study
Type: functional, organism-based
Design: scale not given: in the data most compounds retested in dose-response had high values
measurement.setup: 30.3 µM; […]
Among all 66,000 compounds or so, about 960 (1.5%) showed an effect of 50% or more. For the sample, strong results were picked, then their nearest neighbours and some compounds at random.
I only need the number, in %, no unit after it.

The following compounds have reported results that may help.
Cc1ccc(SCCN(C)C(=O)c2cn([C@H]3CC[C@@H](N)CC3)nn2)cc1    -119
Cc1nc(CN2CCCC(N(C)CC3CCCC3)C2)no1 (stereo not given)    -21.28
CN(C)S(=O)(=O)N1CCCC(c2cccc(Cc3ccc(Cl)cc3)n2)C1 (stereo not given)    99.29
Cc1ccc(CN2CCC3(CC2)CC(c2cccnc2)C(=O)N3C)o1.O=C(O)C(F)(F)F.O=C(O)C(F)(F)F (stereo not given)    -49.66
Cc1ccc(CN2CC[C@@H](O)[C@@H]2Cc2cnn(C)c2)o1.O=C(O)C(F)(F)F    -387.9
CCCc1nc(NCC(=O)N2CCOCC2)c2c(n1)c(C)nn2CC    -24.9

## Input Read off the recorded Percent Effect for Cc1nc(CN2CCCC(CCc3ccccc3C(F)(F)F)C2)no1 (stereo not given)
## Output 87.44

## Input Read off the recorded Percent Effect for CN(C)C[C@]12COC[C@H]1CN(Cc1ccc3c(c1)OCO3)C2.O=C(O)C(F)(F)F.O=C(O)C(F)(F)F
## Output 5.402

## Input Read off the recorded Percent Effect for c1ccc(Cc2cccc(C3CCCN3C3CCOCC3)n2)cc1 (stereo not given)
## Output 101

## Input Read off the recorded Percent Effect for Cc1nn(C)c(N2CCOCC2)c1CNC1CCc2cc(F)ccc21.Cl (stereo not given)
## Output 2.572

* * *

Test system: Trypanosoma brucei
method.notes: Trypanosoma brucei 72 hour study
Format: functional, organism-based
Parameters: scale not given: in the data most compounds retested in dose-response had high values
measurement.setup: 30.3 µM; […]
Among all 66,000 compounds or so, about 960 (1.5%) showed an effect of 50% or more. Shown is part of a subset that was picked to be rich in strong results.
measurement.label: Percent Effect (%)
I only need the number, in %, no unit after it.

The following molecules have reported results that may help.
Cl.O[C@@H]1CN(Cc2ccc(F)cc2)CC[C@H]1NCc1ccccn1    5.839
O=C(CCN1CCc2ccccc21)N1C[C@@H](O)[C@H](N2CCCC2)C1    -36.76
CCOCC1CN(CCc2ccccc2)Cc2c1cnn2C (configuration not stated)    62.26

## Input Read off the recorded Percent Effect for Oc1nc(N2CCOCC2)nc2c1CCN(Cc1ccc(F)cc1)CC2
## Output 100.3

## Input Read off the recorded Percent Effect for Oc1nc(N2CCOCC2)nc2c1CCN(Cc1cccc(F)c1)CC2
## Output -14.28

## Input Read off the recorded Percent Effect for Cc1ncsc1-c1nnc(C2CCN(Cc3ccccc3F)CC2)o1
## Output -22.5

## Input Read off the recorded Percent Effect for Cc1cccc(CN2C(=O)CCC23CCN(C(=O)NC(C)C)CC3)n1.O=C(O)C(F)(F)F
## Output -47.32

## Input Read off the recorded Percent Effect for Cc1occc1-c1nc(NC2CCCC2)ncc1-c1ccccn1
## Output 66.93

## Input Read off the recorded Percent Effect for CCOCC1CN(CCOCc2ccccc2)Cc2c1cnn2C (configuration not stated)
## Output -79.88

## Input Read off the recorded Percent Effect for CC(C)(N)C(=O)N1CCC(c2nccnc2Oc2cccc(F)c2)CC1
## Output 6.584

## Input Read off the recorded Percent Effect for CCN1CCN(c2ncc3c(n2)CN(c2cnn(CC)c2)C3=O)CC1
## Output -16.78

## Input Read off the recorded Percent Effect for Cc1noc(CS(=O)(=O)c2cc(F)ccc2F)n1
## Output -4.369

## Input Read off the recorded Percent Effect for Cc1noc(NCc2ccc(F)cc2F)n1
## Output 72.2

## Input Read off the recorded Percent Effect for Cc1ccccc1-n1ncc(C(C)N)c1C (configuration not stated)
## Output -16.93

## Input Read off the recorded Percent Effect for Cc1cc(-c2cnc(NC3CC3)nc2-c2ccoc2C)on1
## Output 6.625

## Input Read off the recorded Percent Effect for Cc1cc(-c2cnc(NC3CCCC3)nc2-c2ccoc2C)on1
## Output 30.38

## Input Read off the recorded Percent Effect for CN(C)c1ccc(C(=O)N2CCCC(n3cccn3)C2)cn1 (configuration not stated)
## Output -20.71
